Assay: Cytotoxicity against human L929 cells assessed as cell growth inhibition measured after 48 hrs by MTT assay
Type: toxicity, cell-based
Settings: mouse
Measured Quantity: IC50 at 48 h

[
  {
    "Smiles Repr": "CCCCCCCCCCCCCCCCO[C@@H]1O[C@H](CO)[C@@H](O)[C@H](O)[C@H]1O[C@@H]1O[C@H](CO)[C@@H](O)[C@H](O)[C@H]1O",
    "Result": "> 320 µg/mL"
  }
]

Next compound, please.
Ask: Endpoint output: IC50 at 48 h of CCCCCCCCCCCCCCCCO[C@@H]1O[C@H](COC(C)=O)[C@@H](O)[C@H](O)[C@H]1O[C@@H]1O[C@H](CO)[C@@H](O)[C@H](O)[C@H]1O . Value?
Result: > 320 µg/mL

###

Test: Cytotoxicity against human HEK293 cells assessed as cell growth inhibition measured after 48 hrs by MTT assay
Assay type: toxicity, cell-based
Measured Quantity: IC50 at 48 h (µg/mL)
Numbers only, in µg/mL.

Ask: Endpoint output: IC50 at 48 h of COc1cccc2c1C(=O)c1c(O)c3c(c(O)c1C2=O)C[C@@](O)(C(=O)CO)C[C@@H]3O[C@H]1C[C@H](N)[C@H](O)[C@H](C)O1 [DOXORUBICIN] . Value?
Result: 6.1

###

Would you kindly list IC50 at 48 h for each of these compounds?
Assay: Cytotoxicity against human HUVEC cells assessed as cell growth inhibition measured after 48 hrs by MTT assay
Assay type: toxicity, cell-based

[
  {
    "Smiles Repr": "CCCCCCCCCCCCCCCCO[C@@H]1O[C@H](CO)[C@@H](O)[C@H](O)[C@H]1O[C@@H]1O[C@H](CO)[C@@H](O)[C@H](O)[C@H]1O",
    "Measured Quantity": "IC50 at 48 h",
    "Result": "> 320 µg/mL"
  }
]

Ask: Endpoint output: IC50 at 48 h of CCCCCCCCCCCCCCCCO[C@@H]1O[C@H](COC(C)=O)[C@@H](O)[C@H](O)[C@H]1O[C@@H]1O[C@H](CO)[C@@H](O)[C@H](O)[C@H]1O . Value?
Result: > 320 µg/mL

###

Experiment: Cytotoxicity against human HEK293 cells assessed as cell growth inhibition measured after 72 hrs by MTT assay
Format: toxicity, cell-based
Measured Quantity: IC50 at 72 h (µg/mL)
Numbers only, in µg/mL.

Ask: Endpoint output: IC50 at 72 h of COc1cccc2c1C(=O)c1c(O)c3c(c(O)c1C2=O)C[C@@](O)(C(=O)CO)C[C@@H]3O[C@H]1C[C@H](N)[C@H](O)[C@H](C)O1 . Value?
Result: 1

###

Test: Cytotoxicity against human HEK293 cells assessed as cell growth inhibition measured after 24 hrs by MTT assay
Assay type: toxicity, cell-based
Measured Quantity: IC50 at 24 h (µg/mL)
Answers are plain numbers, in µg/mL.

Ask: Endpoint output: IC50 at 24 h of COc1cccc2c1C(=O)c1c(O)c3c(c(O)c1C2=O)C[C@@](O)(C(=O)CO)C[C@@H]3O[C@H]1C[C@H](N)[C@H](O)[C@H](C)O1 . Value?
Result: 16.7

###

Tested on: MDA-MB-231
Assay: Cytotoxicity against human MDA-MB-231 cells assessed as cell growth inhibition measured after 24 hrs by crystal violet staining based assay
Assay type: functional
Settings: MDA-MB-231, 24 h
Would you kindly list IC50 for each of these compounds?
Give bare numbers, in µM.

[
  {
    "Compound": "CC(CCCCCC/C=C\\CCCCCCCC(=O)O)O[C@@H]1O[C@H](CO)[C@@H](O)[C@H](O)[C@H]1O[C@@H]1O[C@H](CO)[C@@H](O)[C@H](O)[C@H]1O (some centres undefined)",
    "Result Unit": "µM",
    "IC50": 80
  },
  {
    "Compound": "CC(=O)OC[C@H]1O[C@H]2OC(C)/C=C/C/C=C/C/C=C\\CCCCCCCC(=O)O[C@H]3[C@H](O)[C@@H](O)[C@H](O[C@@H]2[C@@H](O)[C@@H]1O)O[C@@H]3COC(C)=O (some centres undefined)",
    "Result Unit": "µM",
    "IC50": 30
  },
  {
    "Compound": "CC(=O)OC[C@H]1O[C@H]2OC(C)CCCCCCCCCCCCCCCC(=O)O[C@H]3[C@H](O)[C@@H](O)[C@H](O[C@@H]2[C@@H](O)[C@@H]1O)O[C@@H]3COC(C)=O (some centres undefined)",
    "Result Unit": "µM",
    "IC50": 15
  }
]

Ask: Endpoint output: IC50 of CC(=O)OC[C@H]1O[C@H]2O[C@H]3[C@H](OC(C)CCCCCC/C=C\CCCCCCCC(=O)O[C@H]1[C@H](O)[C@H]2O)O[C@H](CO)[C@@H](O)[C@@H]3O (some centres undefined) . Value?
Result: 15

###

System: Jurkat
Assay: Cytotoxicity against human Jurkat cells assessed as reduction in cell viability at 25 ug/ml measured after 24 hrs
Assay type: functional
Details: dose 25 µg/ml
Measured Quantity: Activity (%)
Give bare numbers, in %.

[
  {
    "Molecule": "CCCCOC(=O)CCCCCCC/C=C\\CCCCCCC(C)O[C@@H]1O[C@H](COC(C)=O)[C@@H](O)[C@H](O)[C@H]1O[C@@H]1O[C@H](COC(C)=O)[C@@H](O)[C@H](O)[C@H]1O (some centres undefined)",
    "Assayed Target": "Jurkat",
    "Measured Quantity": "Activity",
    "Number": 99
  }
]

Hi team, please reply with Activity for each item in this list.
1. CCOC(=O)CCCCCCC/C=C\CCCCCCC(C)O[C@@H]1O[C@H](CO)[C@@H](O)[C@H](O)[C@H]1O[C@@H]1O[C@H](CO)[C@@H](O)[C@H](O)[C@H]1O (some centres undefined)
2. CCOC(=O)CCCCCCC/C=C\CCCCCCC(C)O[C@@H]1O[C@H](COC(C)=O)[C@@H](O)[C@H](O)[C@H]1O[C@@H]1O[C@H](COC(C)=O)[C@@H](O)[C@H](O)[C@H]1O (some centres undefined)
3. CCCCOC(=O)CCCCCCC/C=C\CCCCCCC(C)O[C@@H]1O[C@H](CO)[C@@H](O)[C@H](O)[C@H]1O[C@@H]1O[C@H](CO)[C@@H](O)[C@H](O)[C@H]1O (some centres undefined)

Result:
1. 0
2. 90
3. 0

###

Assay: Cytotoxicity against human CCD-841CoN cells assessed as cell growth inhibition measured after 24 hrs by MTT assay
Type: toxicity, cell-based
Measured Quantity: IC50 at 24 h (µg/mL)
One number for each entry, in µg/mL.

Ask: Endpoint output: IC50 at 24 h of COc1cccc2c1C(=O)c1c(O)c3c(c(O)c1C2=O)C[C@@](O)(C(=O)CO)C[C@@H]3O[C@H]1C[C@H](N)[C@H](O)[C@H](C)O1 . Value?
Result: 1.5
